Molecular target: T1, human CD20 (human, UniProt P11836 1-297)
T1 construct: whole, on cells; also called cell surface CD20
T1 sequence (looked up): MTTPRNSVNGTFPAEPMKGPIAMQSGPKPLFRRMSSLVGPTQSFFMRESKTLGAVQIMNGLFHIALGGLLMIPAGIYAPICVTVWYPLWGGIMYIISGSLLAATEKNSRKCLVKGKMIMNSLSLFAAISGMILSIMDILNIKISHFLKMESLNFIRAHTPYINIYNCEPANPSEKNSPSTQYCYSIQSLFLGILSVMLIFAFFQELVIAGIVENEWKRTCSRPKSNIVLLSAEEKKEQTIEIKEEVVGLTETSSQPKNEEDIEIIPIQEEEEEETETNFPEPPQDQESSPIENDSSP
Assay: indirect immunofluorescence, flow cytometry, BJAB cells, saturating mAb
Consider the following binders; for each one, report its mean linear fluorescence intensity.

Field: example entries. Status: answers known.
| binder | mean linear fluorescence intensity |
| --- | --- |
| 1H4 (IgG2a) anti-CD20 monoclonal antibody (antibody) chain 1: QVQLQQPGAELVKPGASVKMSCKTSGYTFTSYNVHWVKQTPGQGLEWIGAIYPGNGDTSFNQKFKGKATLTADKSSSTVYMQLSSLTSEDSAVYYCARSNYYGSSYVWFFDVWGAGTTGTGSS chain 2: QIVLSQSPTILSASPGEKVTMTCRASSSVSYMDWYQQKPGSSPKPWIYATSNLASGVPARFSGSGSGTSYSLTISRVEAEDAATYYCQQWISNPPTFGAGTKLELK | 240 mean linear fluorescence intensity |
| B9E9 anti-CD20 monoclonal antibody (antibody, V domains shown) VH: QVQLVQSGAELVKPGASVKMSCKASGYTFTSYNMHWVKQTPGQGLEWIGAIYPGNGDTSYNQKFKGKATLTADKSSSTAYMQLSSLTSEDSAVYYCARAQLRPNYWYFDVWGAGTTVTVSS VL: DIVLSQSPAILSASPGEKVTMTCRASSSVSYMHWYQQKPGSSPKPWIYATSNLASGVPARFSGSGSGTSYSLTISRVEAEDAATYYCQQWISNPPTFGAGTKLELK | 377 mean linear fluorescence intensity |

Then there is this binder:
query: Supply reported mean linear fluorescence intensity belonging to this binder: HB20-25 monoclonal antibody (antibody, V domains shown, Used as tissue culture supernatant) VH: EVQLQESGAELVKPGASVKMSCKASGFRFTNYNLHWVKQTPGQGLEWIGAIYPGNGETSYNQKFKGKATLTADKSSSTAYMQLRSLTSGDSAVYYCARFYYYGSSYGAMDYWGQGTSVTVSS VL: DIQMTQSPASLSVSVGETVTITCRASENIYSNLAWYQQKQGKSPQLLVYAATNLADGVPSRFSGSGSGTQYSLKINSLQSEDFGSYYCQHFWGIPWTFGGGTKLEIKR
result: 849 mean linear fluorescence intensity
